Test system: Human alphaherpesvirus 1
protocol_notes: Antiviral activity against herpes simplex virus-1 VR-3 strain in HEL ([…]) cells.
Type: functional
experimental_setup: Human alphaherpesvirus 1, HEL; read-out: ED50 (the source's name)
assay_endpoint: EC50 (µg/mL)

In the examples that follow, each entry is paired with its recorded EC50.
Nc1ncnc2c1ncn2[C@@H]1O[C@H](CO)[C@@H](O)[C@@H]1O :: 17.1
O=c1[nH]c(=O)n([C@@H]2S[C@H](CO)[C@@H](O)[C@@H]2O)cc1/C=C/Cl :: 0.97

1. O=c1[nH]c(=O)n([C@@H]2O[C@H](CO)[C@@H](O)[C@@H]2O)cc1/C=C/Br
2. O=c1[nH]c(=O)n([C@@H]2S[C@H](CO)[C@@H](O)[C@@H]2O)cc1/C=C/Br
3. Nc1nc(N)c2ncn([C@@H]3S[C@H](CO)[C@@H](O)[C@@H]3O)c2n1
**Query** Put the entries in order of EC50, starting with the largest number. Your task in answering is to list the labels in the requested order.
**Result** 2, 3, 1
(2: 0.82 µg/mL, 3: 0.52 µg/mL, 1: 0.036 µg/mL)
